Biological target: ASADH (Vibrio cholerae serotype O1)
Sequence (Q9KQG2 whole entry): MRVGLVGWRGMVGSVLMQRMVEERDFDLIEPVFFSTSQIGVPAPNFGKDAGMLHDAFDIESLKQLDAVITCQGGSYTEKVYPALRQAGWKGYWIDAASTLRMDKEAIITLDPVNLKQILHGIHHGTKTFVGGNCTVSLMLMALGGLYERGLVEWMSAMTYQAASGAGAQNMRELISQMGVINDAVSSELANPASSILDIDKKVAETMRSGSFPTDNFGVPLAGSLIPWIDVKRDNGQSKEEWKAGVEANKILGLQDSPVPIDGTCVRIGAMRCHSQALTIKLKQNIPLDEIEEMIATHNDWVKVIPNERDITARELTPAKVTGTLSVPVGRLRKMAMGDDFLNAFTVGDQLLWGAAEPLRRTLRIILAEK
test.readout: Ki (µM)

| compound | tested.system | quantitative.result |
| --- | --- | --- |
| C=CC[S@+]([O-])C[C@H](N)C(=O)O [S-allyl-L-cysteine sulfoxide] | ASADH (Vibrio cholerae serotype O1) | 8 |

###

The following compounds have recorded Ki on spASADH (Streptococcus pneumoniae, UniProt Q8DQ00).
Sequence (Q8DQ00 1-358): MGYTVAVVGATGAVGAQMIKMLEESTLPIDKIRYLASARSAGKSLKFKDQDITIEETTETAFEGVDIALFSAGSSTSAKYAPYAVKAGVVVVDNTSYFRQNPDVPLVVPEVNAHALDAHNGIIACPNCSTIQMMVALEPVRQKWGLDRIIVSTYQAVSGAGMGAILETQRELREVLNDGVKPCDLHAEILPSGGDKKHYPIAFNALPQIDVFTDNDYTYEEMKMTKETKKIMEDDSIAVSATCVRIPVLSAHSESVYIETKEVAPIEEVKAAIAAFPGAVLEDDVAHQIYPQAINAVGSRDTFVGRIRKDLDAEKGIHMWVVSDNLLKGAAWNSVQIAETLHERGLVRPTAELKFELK

| compound | Ki |
| --- | --- |
| O=C(O)c1ccc(C(=O)O)cc1 | ~5 mM |
| Nc1cc(C(=O)O)ccc1C(=O)O [2-aminoterephthalate] | 0.78 mM |
